Please go through the items and note down their inhibition.
target: Dual specificity protein phosphatase 1 (Homo sapiens) (UniProt P28562); assay: MKP-1 phosphatase inhibitors, primary screen, biochemical, in vitro (AID 374); conditions: recombinant MKP-1, OMFP hydrolysis fluorescence; active compounds read high;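 compounds tested at a single concentration somewhere between 10 and 100 µM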;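 also: 0% = DMSO max control wells and 100% = wells with enzyme stopped by NaOH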
Sequence (P28562 whole entry, looked up): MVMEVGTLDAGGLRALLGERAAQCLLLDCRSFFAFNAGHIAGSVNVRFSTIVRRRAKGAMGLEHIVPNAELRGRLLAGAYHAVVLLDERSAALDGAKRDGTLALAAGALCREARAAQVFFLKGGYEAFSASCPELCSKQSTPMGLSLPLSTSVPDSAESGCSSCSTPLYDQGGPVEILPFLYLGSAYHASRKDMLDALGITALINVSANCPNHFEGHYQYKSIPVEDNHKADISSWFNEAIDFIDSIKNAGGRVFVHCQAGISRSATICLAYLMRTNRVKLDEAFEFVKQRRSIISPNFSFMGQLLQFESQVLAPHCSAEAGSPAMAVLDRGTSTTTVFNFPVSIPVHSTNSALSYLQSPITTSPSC
In all, about 65,000 compounds went through this assay and about 100 (0.15%) were called active. Only a selection was taken, and actives are over-represented in it overall.

In the examples that follow, each entry is paired with its recorded inhibition.
# Molecule, Obs value
measured = [
    ("CCOC(=O)c1cc2c(n(-c3ccc(C)cc3)c1=O)CCCC2=O", "3.58% (inactive)"),
    ("O=S(=O)(NCCOc1cccc2cccnc12)c1ccc(F)cc1", "-4.61% (inactive)"),
]

--- query ---
Request: Any idea what inhibition was measured for CCOC(=O)C1C(=O)OC2(CCCC2)C1C(=O)OCC (stereo not drawn) ?
Response: 0.52% (inactive)

* * *

target: Dual specificity protein phosphatase 1 (Homo sapiens) (UniProt P28562); assay: MKP-1 phosphatase inhibitors, primary screen, biochemical, in vitro (AID 374); settings: recombinant MKP-1, OMFP hydrolysis fluorescence;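 compounds tested at a single concentration somewhere between 10 and 100 µM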;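 also: 0% = DMSO max control wells and 100% = wells with enzyme stopped by NaOH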
About 100 (0.15%) of roughly 65,000 compounds were called active.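 The calls were made as follows: active = inhibition above about 50% (limit read from the data); inconclusive = inhibition over screen mean plus 3 SD, below that limit; inactive = the rest.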 The sample as a whole holds a higher share of actives than the screen did.
Pick one: active, inactive

These recorded examples may help you get a feel for the data.
# Compound, Class name
rows = [
    ("Cc1ccnc(N2CCN(C(=O)CSc3nc4ccccc4nc3N3CCCCC3)CC2)c1", "inactive"),
    ("OC(COc1ccccc1)Cn1cc(Br)cn1 (stereo not drawn)", "inactive"),
    ("COc1ccccc1Nc1nc(N)nc(CN(C)C2CCCCC2)n1", "inactive"),
    ("CCOC(=O)C1CCCN(C(=O)c2cncc(Br)c2)C1 (stereo not drawn)", "inactive"),
    ("O=C(CSc1nc2[nH]ncc2c(=O)n1-c1ccccc1)N1CCCc2ccccc21", "active"),
    ("COc1ccc(S(=O)(=O)N2CCCC(C(=O)Nc3ccc(NC(=O)c4ccccn4)cc3)C2)cc1 (stereo not drawn)", "inactive"),
]

Request: Test call, this compound: Cc1ccc(C(=O)Nc2ccccc2C(=O)NC2CCCCC2)cc1S(=O)(=O)N1CCOCC1
Response: inactive

Request: Test call, this compound: CNC(=O)C1CC(=O)N(Cc2ccc3c(c2)OCO3)C(=Nc2ccc(F)cc2)S1 (stereo not drawn)
Response: inactive

Request: Test call, this compound: CSC1=NCCN1C(=O)c1ccc(S(=O)(=O)N2CCOCC2)cc1
Response: inactive

Request: Test call, this compound: COCCOC(=O)C1=C(C)NC(=O)NC1c1ccc(Cl)cc1 (stereo not drawn)
Response: inactive

Request: Test call, this compound: CC(C)[C@H](NC(=O)Nc1ccc(S(N)(=O)=O)cc1)C(=O)O
Response: inactive

Request: Test call, this compound: Cc1cc(N2C(=O)c3ccc(C(=O)NCc4ccccc4)cc3C2=O)no1
Response: inactive

* * *

target: Dual specificity protein phosphatase 1 (Homo sapiens); assay: MKP-1 phosphatase inhibitors, primary screen, biochemical, in vitro (AID 374); details: recombinant MKP-1, OMFP hydrolysis fluorescence; active compounds read high;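 compounds tested at a single concentration somewhere between 10 and 100 µM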;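 also: 0% = DMSO max control wells and 100% = wells with enzyme stopped by NaOH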
The campaign covered roughly 65,000 compounds. About 100 (0.15%) were called active. Only a selection was taken, and actives are over-represented in it overall.
Please go through the items and note down their inhibition.

# Smiles string, Obs value
rows = [
    ("Cn1c(C(=O)NCCN2CCc3ccccc3C2)cc2c(=O)[nH]c3ccccc3c21", "31% (inactive)"),
    ("Cc1cccc(N2CCN(C(=O)c3cc4c(=O)[nH]c5ccccc5c4n3C)CC2)c1C", "50.9% (active)"),
    ("O=C(Cn1nnc(-c2ccc(CN3CCOCC3)cc2)n1)NC1CCCCC1", "-10.1% (inactive)"),
    ("Cc1ccc(C(=O)NCCNS(=O)(=O)c2ccccc2)cc1", "9.54% (inactive)"),
]

--- query ---
Request: Any idea what inhibition was measured for O=C(Nc1cccnc1)c1noc2c1CCCCC2 ?
Response: -9.22% (inactive)
